assay: Study No. 15-4 toxicokinetics of fospropofol and propofol in plasma; format: in vivo, Beagle dogs; conditions: Beagle, dog, plasma, oral, range over all groups; read-out: Fospropofol Tmax
attributeMeasured: Tmax

Recall and state the measured Tmax for CC(C)c1cccc(C(C)C)c1OCOP(=O)(O)O [fospropofol] .
5 to 60 min

###

assay: Study A16 Part 1: PK of single ascending oral doses of fospropofol disodium (200 to 2000 mg), fasted healthy adults; type: in vivo, human; conditions: both sexes, human, plasma, oral, 200 mg, Propofol Cmax (arithmetic mean, n=10), after a single 200-mg capsule
attributeMeasured: Cmax (ng/mL)
# unit: ng/mL | format: bare number

For the molecule CC(C)c1cccc(C(C)C)c1O [propofol, 2,6-diisopropylphenol] , report Cmax.
69.4

###

test: Study A16 Part 1: PK of single ascending oral doses of fospropofol disodium (200 to 2000 mg), fasted healthy adults; format: in vivo, human; details: female, human, plasma, oral, 800 mg, females only (800 mg cohort); Mean; read-out: Fospropofol Auc2
attributeMeasured: AUC

Please indicate AUC recorded for CC(C)c1cccc(C(C)C)c1OCOP(=O)(O)O
3710 ng·h/mL

###

assay: Study A16 Part 1: PK of single ascending oral doses of fospropofol disodium (200 to 2000 mg), fasted healthy adults; assay type: in vivo, human; conditions: both sexes, human, plasma, po, 200 mg, Propofol Cmax Minimum, oral fospropofol disodium 200 mg
attributeMeasured: Cmax (ng/mL)
The reply should be a number in ng/mL, with the unit left off.

Note down Cmax recorded for CC(C)c1cccc(C(C)C)c1O
35.1

###

assay: Study A16 Part 1: PK of single ascending oral doses of fospropofol disodium (200 to 2000 mg), fasted healthy adults; type: in vivo, human; conditions: both sexes, human, plasma, oral, 800 mg, Propofol Cmax (arithmetic mean, n=10), single dose of 800 mg (four 200 mg capsules)
attributeMeasured: Cmax (ng/mL)
Give a bare numeral; the unit ng/mL is implied.

Specify reported Cmax for the compound shown: CC(C)c1cccc(C(C)C)c1O
362

###

test: Study No. 15-3 toxicokinetics of fospropofol and propofol in plasma; assay type: in vivo, Sprague-Dawley rats; conditions: male, Sprague-Dawley, rat, plasma, po, 250 mg/kg, oral gavage fospropofol disodium; Male; 250 mg/kg; Day 1; read-out: Fospropofol AUC0-6 hr
attributeMeasured: AUC(0-t) (ng·h/mL)
Quick note: give the figure in ng·h/mL, leave out the unit.

Find the measured AUC(0-t) of CC(C)c1cccc(C(C)C)c1OCOP(=O)(O)O and report it.
3720

###

experiment: Study A16 Part 1: PK of single ascending oral doses of fospropofol disodium (200 to 2000 mg), fasted healthy adults; type: in vivo, human; conditions: female, human, plasma, oral, 800 mg, females only (800 mg cohort); Mean; read-out: Fospropofol Cmax
attributeMeasured: Cmax (ng/mL)
I only need the number, in ng/mL, no unit after it.

Tell me measured Cmax for CC(C)c1cccc(C(C)C)c1OCOP(=O)(O)O [fospropofol] please.
6730
